Value source: patent US20250064789A1

- assayMethodText: in vivo
- Format: in vivo, ICR mice
- settings: male, mouse, in vivo, po; ICR mice, p.o. 150 mg/kg; read-out: MRTINF—obs
endpoint: MRT inf (h)
All answers are understood in h, so give the number only.

Specify reported MRT inf for the molecule shown: COC[C@@H](NC(=O)C1CCCC(F)(F)C1)C(=O)N[C@H](Cc1ccccc1)C(=O)C(=O)NCc1nccs1 (stereo partly shown)
3.62

----------
- assayMethodText: in vivo
- settings: male, Sprague-Dawley, rat, po, 10 mg/kg
endpoint: Tmax (min)
All answers are understood in min, so give the number only.

Specify reported Tmax for the compound shown: C[C@@H](NC(=O)CC1CC1(F)F)C(=O)N[C@H](Cc1ccccc1)C(=O)C(=O)NCc1cscn1 (some centres unmarked) [Compound 417]
200

Specify reported Tmax for the compound shown: O=C(NCc1ccccn1)C(=O)[C@@H](Cc1ccccc1)NC(=O)[C@H]1COCCN1C(=O)[C@H](NC(=O)c1cnccn1)C1CCCCC1 [Compound 290]
30

Specify reported Tmax for the compound shown: O=C(NCc1ccccn1)C(=O)[C@@H](Cc1ccccc1)NC(=O)[C@H]1COCCN1C(=O)C1CCC(F)(F)CC1 [Compound 288]
45

Specify reported Tmax for the compound shown: C[C@@H](NC(=O)C1CCC(F)(F)CC1)C(=O)N[C@H](Cc1ccccc1)C(=O)C(=O)NCc1ccccn1 [Compound 145]
19.8

Specify reported Tmax for the compound shown: O=C(CNC(=O)C1CCC(F)(F)CC1)N[C@H](Cc1ccccc1)C(=O)C(=O)NCc1ccccn1 [Compound 155]
19.8

Specify reported Tmax for the compound shown: COC[C@@H](NC(=O)C1CCCC(F)(F)C1)C(=O)N[C@H](Cc1ccccc1)C(=O)C(=O)NCc1nccs1 (some centres unmarked) [Compound 398]
240

Specify reported Tmax for the compound shown: O=C(CNC(=O)C1CC12CCC(F)(F)CC2)N[C@H](Cc1ccccc1)C(=O)C(=O)NCc1ccccn1 (some centres unmarked) [Compound 333]
55.2

Specify reported Tmax for the compound shown: COC[C@@H](NC(=O)C1CCC(F)(F)CC1)C(=O)N[C@H](Cc1ccccc1)C(=O)C(=O)NCc1nccs1 [Compound 395]
240

Specify reported Tmax for the compound shown: C[C@@H](NC(=O)N1CCC(F)(F)CC1)C(=O)N[C@H](Cc1ccccc1)C(=O)C(=O)NCc1ccccn1 [Compound 296]
15

Specify reported Tmax for the compound shown: O=C(NCc1ccccn1)C(=O)[C@@H](Cc1ccccc1)NC(=O)[C@H]1COCCN1C(=O)CC1CCC(F)(F)CC1 [Compound 289]
30

Specify reported Tmax for the compound shown: O=C(CCC1CCC(F)(F)CC1)NCC(=O)N[C@H](Cc1ccccc1)C(=O)C(=O)NCc1ccccn1 [Compound 153]
100

Specify reported Tmax for the compound shown: C[C@@H](NC(=O)[C@@H]1C[C@@H]2[C@H](C1)C2(F)F)C(=O)N[C@H](Cc1ccccc1)C(=O)C(=O)NCc1ccccn1 [Compound 126]
30

Specify reported Tmax for the compound shown: O=C(CC1CCC(F)(F)CC1)NCC(=O)N[C@H](Cc1ccccc1)C(=O)C(=O)NCc1ccccn1 [Compound 150]
25.2

Specify reported Tmax for the compound shown: COC[C@@H](NC(=O)CC1CC(F)(F)C1)C(=O)N[C@H](Cc1ccccc1)C(=O)C(=O)NCc1nccs1 [Compound 400]
120
